Values compiled from patent US20040203002.

Target system: Zif268 finger 2 variant REDV finger 2 alpha-helix variant REDV (full helix only in FIG. 1D) (Mus musculus) (UniProt P08046)
Condition notes: [none]; apparent Kd interpolated from microarray signal 0.084
Quantity kind: Kd (nM)
Write the answer as a number in nM, unit excluded.

Item TATATAGCGGCCGCGTATATATCAAGTCAATCGGTCC (double strand) [Zif268 site GCC] has what recorded Kd? 1500

###

Target system: Zif268 finger 2 variant LRHN finger 2 alpha-helix variant LRHN (full helix only in FIG. 1D) (Mus musculus)
Condition notes: [none]; apparent Kd interpolated from microarray signal 0.384
Quantity kind: Kd (nM)
Write the answer as a number in nM, unit excluded.

Item TATATAGCGTGTGCGTATATATCAAGTCAATCGGTCC (double strand) [Zif268 site TGT] has what recorded Kd? 130
